- System: ChaGo-K-1
- protocol_notes: relative viability (nuclei count vs DMSO), 5 days (fraction); higher = more cells survive
- condition_details: first compound 8 µM
Some compounds, each annotated with its measured relative viability.
assay_metric: relative viability

compound	assay_metric	measured_result
CCCCCCCCCCCC1=C(O)C(=O)C=C(O)C1=O [Embelin] + COc1cccc2cc(-c3nc([C@H]4CC[C@H](C(=O)O)CC4)n4ncnc(N)c34)[nH]c12 [OSI-027] (partner 0.5 µM)	relative viability	0.556
CCCCCCCCCCCC1=C(O)C(=O)C=C(O)C1=O [Embelin] + CC(C)C[C@H](NC(=O)[C@H](Cc1ccccc1)NC(=O)c1cnccn1)B(O)O [Bortezomib] (partner 0.002 µM)	relative viability	0.793
CCCCCCCCCCCC1=C(O)C(=O)C=C(O)C1=O [Embelin] + CCNC(=O)c1noc(-c2cc(C(C)C)c(O)cc2O)c1-c1ccc(CN2CCOCC2)cc1 [Luminespib] (partner 0.01 µM)	relative viability	0.587
CCCCCCCCCCCC1=C(O)C(=O)C=C(O)C1=O [Embelin] + NC(=O)Nc1cc(-c2cccc(F)c2)sc1C(=O)N[C@H]1CCCNC1 [AZD7762] (partner 0.2 µM)	relative viability	0.874

---

- System: NCI-H661
- protocol_notes: relative viability (nuclei count vs DMSO), 5 days (fraction); higher = more cells survive
- condition_details: first compound 0.08 µM
Rule: relative viability below 0.8 gives class 1. Equal to or above 0.8 gives class 0.

molecule	classification
CCCCCCCCCCCC1=C(O)C(=O)C=C(O)C1=O [Embelin] + COc1cc2c(Oc3ccc(NC(=O)C4(C(=O)Nc5ccc(F)cc5)CC4)cc3F)ccnc2cc1OCCCN1CCOCC1 [Foretinib] (partner 0.25 µM)	class 0
CCCCCCCCCCCC1=C(O)C(=O)C=C(O)C1=O [Embelin] + COc1cccc2cc(-c3nc([C@H]4CC[C@H](C(=O)O)CC4)n4ncnc(N)c34)[nH]c12 [OSI-027] (partner 0.5 µM)	class 1
CCCCCCCCCCCC1=C(O)C(=O)C=C(O)C1=O [Embelin] + Cc1cc(Nc2cc(N3CCN(C)CC3)nc(Sc3ccc(NC(=O)C4CC4)cc3)n2)n[nH]1 [Tozasertib] (partner 0.1 µM)	class 1
CCCCCCCCCCCC1=C(O)C(=O)C=C(O)C1=O [Embelin] + N=C(N)NC(=N)NCCc1ccccc1 [Phenformin] (partner 250 µM)	class 1

---

- Tested on: NCI-H1915
- protocol_notes: relative viability (nuclei count vs DMSO), 5 days (fraction); higher = more cells survive
- condition_details: first compound 0.03162 µM

compound	relative viability
CC(C)Oc1cc(Nc2nc(N[C@@H](C)c3ccc(F)cn3)ncc2Cl)n[nH]1 [AZ23] + O=C(CCCCCCC(=O)Nc1ccccc1)NO [Vorinostat] (partner 1 µM)	0.526
CC(C)Oc1cc(Nc2nc(N[C@@H](C)c3ccc(F)cn3)ncc2Cl)n[nH]1 [AZ23] + C[C@@H](Oc1cc(-c2cnn(C3CCNCC3)c2)cnc1N)c1c(Cl)ccc(F)c1Cl [Crizotinib] (partner 1 µM)	0.936
CC(C)Oc1cc(Nc2nc(N[C@@H](C)c3ccc(F)cn3)ncc2Cl)n[nH]1 [AZ23] + O=C(c1cc(Cc2n[nH]c(=O)c3ccccc23)ccc1F)N1CCN(C(=O)C2CC2)CC1 [Olaparib] (partner 8 µM)	0.253
CC(C)Oc1cc(Nc2nc(N[C@@H](C)c3ccc(F)cn3)ncc2Cl)n[nH]1 [AZ23] + Nc1nc2[nH]cc(CCc3ccc(C(=O)N[C@@H](CCC(=O)O)C(=O)O)cc3)c2c(=O)[nH]1 [Pemetrexed] (partner 0.2 µM)	0.485
CC(C)Oc1cc(Nc2nc(N[C@@H](C)c3ccc(F)cn3)ncc2Cl)n[nH]1 [AZ23] + CC1(C)CCC(c2ccc(Cl)cc2)=C(CN2CCN(c3ccc(C(=O)NS(=O)(=O)c4ccc(N[C@H](CCN5CCOCC5)CSc5ccccc5)c(S(=O)(=O)C(F)(F)F)c4)cc3)CC2)C1 [Navitoclax] (partner 0.5 µM)	0.845
CC(C)Oc1cc(Nc2nc(N[C@@H](C)c3ccc(F)cn3)ncc2Cl)n[nH]1 [AZ23] + COc1cc2c(Oc3ccc(NC(=O)C4(C(=O)Nc5ccc(F)cc5)CC4)cc3F)ccnc2cc1OCCCN1CCOCC1 [Foretinib] (partner 0.25 µM)	1.14

---

- Tested on: HOP-62
- protocol_notes: relative viability (nuclei count vs DMSO), 5 days (fraction); higher = more cells survive
- condition_details: first compound 0.04 µM
Records here are stratified by relative viability; strata: low end: < 0.6; middle: ≥ 0.6 and < 0.9; high end: ≥ 0.9

compound	classification
C[C@@H]1CN(CC(=O)Nc2ccc3c(c2)Cc2cccc(-c4cc(=O)cc(N5CCOCC5)o4)c2S3)C[C@H](C)O1 + Cc1nc(Nc2ncc(C(=O)Nc3c(C)cccc3Cl)s2)cc(N2CCN(CCO)CC2)n1 [Dasatinib] (partner 0.075 µM)	middle
Clc1ccc(Nc2nnc(Cc3ccncc3)c3ccccc23)cc1 [Vatalanib] + CCNC(=O)c1noc(-c2cc(C(C)C)c(O)cc2O)c1-c1ccc(CN2CCOCC2)cc1 [Luminespib] (partner 0.01 µM)	high end
COc1cc(N2CCC(C(N)=O)CC2)ccc1Nc1nc(N)c(Cl)c(Nc2ccccc2S(=O)(=O)C(C)C)n1 [HG-5-88-01] + Nc1nc2[nH]cc(CCc3ccc(C(=O)N[C@@H](CCC(=O)O)C(=O)O)cc3)c2c(=O)[nH]1 [Pemetrexed] (partner 0.2 µM)	low end
Clc1ccc(Nc2nnc(Cc3ccncc3)c3ccccc23)cc1 [Vatalanib] + C[C@]1(O)C[C@@H](c2nc(-c3ccc4ccc(-c5ccccc5)nc4c3)c3c(N)nccn32)C1 [Linsitinib] (partner 1 µM)	middle
Clc1ccc(Nc2nnc(Cc3ccncc3)c3ccccc23)cc1 [Vatalanib] + NC(=O)Nc1cc(-c2cccc(F)c2)sc1C(=O)N[C@H]1CCCNC1 [AZD7762] (partner 0.2 µM)	middle
C[C@@H]1CN(CC(=O)Nc2ccc3c(c2)Cc2cccc(-c4cc(=O)cc(N5CCOCC5)o4)c2S3)C[C@H](C)O1 + Cc1nc(NC(=O)N2CCC[C@H]2C(N)=O)sc1-c1ccnc(C(C)(C)C(F)(F)F)c1 [Alpelisib] (partner 2 µM)	high end
C[C@@H]1CN(CC(=O)Nc2ccc3c(c2)Cc2cccc(-c4cc(=O)cc(N5CCOCC5)o4)c2S3)C[C@H](C)O1 + O=C(CCCCCCC(=O)Nc1ccccc1)NO [Vorinostat] (partner 1 µM)	low end

---

Some compounds, each annotated with its measured relative viability.
- System: NCI-H650
- protocol_notes: relative viability (nuclei count vs DMSO), 5 days (fraction); higher = more cells survive
- condition_details: first compound 0.03162 µM
assay_metric: relative viability

compound	measured_result
CC(C)Oc1cc(Nc2nc(N[C@@H](C)c3ccc(F)cn3)ncc2Cl)n[nH]1 [AZ23] + CC(=O)Nc1cccc(-n2c(=O)n(C3CC3)c(=O)c3c(Nc4ccc(I)cc4F)n(C)c(=O)c(C)c32)c1 [Trametinib] (partner 0.02 µM)	0.99
CC(C)Oc1cc(Nc2nc(N[C@@H](C)c3ccc(F)cn3)ncc2Cl)n[nH]1 [AZ23] + Cc1nc(Nc2ncc(C(=O)Nc3c(C)cccc3Cl)s2)cc(N2CCN(CCO)CC2)n1 [Dasatinib] (partner 0.075 µM)	0.46

---

Some molecules, each annotated with its measured relative viability.
- System: NCI-H727
- protocol_notes: relative viability (nuclei count vs DMSO), 5 days (fraction); higher = more cells survive
- condition_details: first compound 0.3162 µM
assay_metric: relative viability

molecule	assay_metric	measured_result
CC(C)Oc1cc(Nc2nc(N[C@@H](C)c3ccc(F)cn3)ncc2Cl)n[nH]1 [AZ23] + NC(=O)Nc1cc(-c2cccc(F)c2)sc1C(=O)N[C@H]1CCCNC1 [AZD7762] (partner 0.2 µM)	relative viability	0.597
CC(C)Oc1cc(Nc2nc(N[C@@H](C)c3ccc(F)cn3)ncc2Cl)n[nH]1 [AZ23] + C[C@@H](Oc1cc(-c2cnn(C3CCNCC3)c2)cnc1N)c1c(Cl)ccc(F)c1Cl [Crizotinib] (partner 1 µM)	relative viability	0.648
CC(C)Oc1cc(Nc2nc(N[C@@H](C)c3ccc(F)cn3)ncc2Cl)n[nH]1 [AZ23] + COc1cccc2cc(-c3nc([C@H]4CC[C@H](C(=O)O)CC4)n4ncnc(N)c34)[nH]c12 [OSI-027] (partner 0.5 µM)	relative viability	0.605
CC(C)Oc1cc(Nc2nc(N[C@@H](C)c3ccc(F)cn3)ncc2Cl)n[nH]1 [AZ23] + CS(=O)(=O)N1CCN(Cc2cc3nc(-c4cccc5[nH]ncc45)nc(N4CCOCC4)c3s2)CC1 [Pictilisib] (partner 1 µM)	relative viability	0.329

---

- Tested on: NCI-H1650
- protocol_notes: relative viability (nuclei count vs DMSO), 5 days (fraction); higher = more cells survive
- condition_details: first compound 0.1265 µM

molecule	relative viability
COc1cc(N2CCC(C(N)=O)CC2)ccc1Nc1nc(N)c(Cl)c(Nc2ccccc2S(=O)(=O)C(C)C)n1 [HG-5-88-01] + COc1cccc2cc(-c3nc([C@H]4CC[C@H](C(=O)O)CC4)n4ncnc(N)c34)[nH]c12 [OSI-027] (partner 0.5 µM)	0.657
C[C@@H]1CN(CC(=O)Nc2ccc3c(c2)Cc2cccc(-c4cc(=O)cc(N5CCOCC5)o4)c2S3)C[C@H](C)O1 + COc1cc2c(Oc3ccc(NC(=O)C4(C(=O)Nc5ccc(F)cc5)CC4)cc3F)ccnc2cc1OCCCN1CCOCC1 [Foretinib] (partner 0.25 µM)	1.14
